Origin of the recorded values: ChEMBL document CHEMBL3885881

Entries and their measured CREATININE follow.
Organism: Rattus norvegicus
EXPERIMENT NOTES: DrugMatrix - Regimen: Daily Repeat
Assay type: toxicity, organism-based, Sprague-Dawley
Set-up: regimen Daily Repeat, gender Male, age 6-8 weeks
TEST CONDITIONS: in vivo, po, 0 mg/kg, 120 h, tissue Plasma, route oral GAVAGE, dose level Control, time 5 day, vehicle 100 % WATER
State just the number; it will be interpreted in mg/dL.

See these solved cases before continuing.
INSERT INTO measurements (compound, unit_info, result) VALUES
  ('Cn1cc[nH]c1=S', 'mg/dL', 0.2),
  ('C[C@H]1c2cccc(O)c2C(=O)C2=C(O)[C@]3(O)C(=O)C(C(N)=O)=C(O)[C@@H](N(C)C)[C@@H]3[C@@H](O)[C@@H]21.O', 'mg/dL', 0.17),
  ('C=CCC1(C(C)CCC)C(=O)NC(=O)NC1=O (stereo unspecified)', 'mg/dL', 0.17),
  ('C[C@H](CS)C(=O)N1CCC[C@H]1C(=O)O', 'mg/dL', 0.23),
  ('CN(C)CCCN1c2ccccc2Sc2ccc(Cl)cc21', 'mg/dL', 0.1);

Here is another compound to look at.
What does the data say about its CREATININE? Entry: CNNCc1ccc(C(=O)NC(C)C)cc1
0.13
